Values compiled from ChEMBL document CHEMBL1799960.

target or test system: Ectonucleotide pyrophosphatase/phosphodiesterase family member 1 (Homo sapiens) (UniProt P22413)
Sequence (whole entry): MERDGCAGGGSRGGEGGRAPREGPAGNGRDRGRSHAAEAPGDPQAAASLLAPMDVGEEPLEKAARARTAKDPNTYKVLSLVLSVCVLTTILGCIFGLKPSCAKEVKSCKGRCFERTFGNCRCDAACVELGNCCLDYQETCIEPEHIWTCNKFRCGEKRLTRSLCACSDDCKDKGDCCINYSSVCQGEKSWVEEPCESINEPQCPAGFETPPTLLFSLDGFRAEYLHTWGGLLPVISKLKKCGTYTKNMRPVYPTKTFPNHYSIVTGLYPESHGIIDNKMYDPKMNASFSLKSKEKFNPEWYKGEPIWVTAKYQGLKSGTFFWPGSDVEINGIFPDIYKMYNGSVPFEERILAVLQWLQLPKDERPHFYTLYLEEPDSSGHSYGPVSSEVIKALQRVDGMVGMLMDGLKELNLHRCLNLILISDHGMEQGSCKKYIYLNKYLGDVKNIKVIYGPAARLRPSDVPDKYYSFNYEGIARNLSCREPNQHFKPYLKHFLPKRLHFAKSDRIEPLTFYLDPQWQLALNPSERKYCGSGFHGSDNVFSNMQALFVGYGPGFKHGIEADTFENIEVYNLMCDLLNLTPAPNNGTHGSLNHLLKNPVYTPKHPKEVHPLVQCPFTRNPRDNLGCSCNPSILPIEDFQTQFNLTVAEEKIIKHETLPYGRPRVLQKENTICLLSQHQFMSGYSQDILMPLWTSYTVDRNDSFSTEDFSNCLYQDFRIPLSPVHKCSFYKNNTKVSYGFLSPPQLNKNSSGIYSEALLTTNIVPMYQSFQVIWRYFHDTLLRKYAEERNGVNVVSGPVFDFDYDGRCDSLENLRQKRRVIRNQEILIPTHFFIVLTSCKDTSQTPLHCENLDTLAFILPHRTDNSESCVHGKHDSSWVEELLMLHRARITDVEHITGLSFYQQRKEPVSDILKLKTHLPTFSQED
test method notes: Inhibition of human NPP1 expressed in COS7 cells assessed as amount of inorganic phosphate released using ATP as the substrate at 100 uM after 15 mins by malachite green reagent method
Type: cell-based
measurement context: COS-7
inhibition listing for selected compounds.

molecule smiles	result
Nc1ncnc2c1ncn2[C@H]1C[C@H](O)[C@@H](COP(=O)(O)CP(=O)(O)OP(=O)(O)CP(=O)(O)OC[C@H]2O[C@@H](n3cnc4c(N)ncnc43)C[C@@H]2O)O1	> 90%
BP(=O)(OP(=O)(O)CP(=O)(O)OC[C@H]1O[C@@H](n2cnc3c(N)ncnc32)C[C@@H]1O)OP(=O)(O)CP(=O)(O)OC[C@H]1O[C@@H](n2cnc3c(N)ncnc32)C[C@@H]1O	70%
BP(=O)(OP(=O)(O)CP(=O)(O)OC[C@H]1O[C@@H](n2cnc3c(N)ncnc32)[C@H](O)[C@@H]1O)OP(=O)(O)CP(=O)(O)OC[C@H]1O[C@@H](n2cnc3c(N)ncnc32)[C@H](O)[C@@H]1O	> 90%

Now consider the entry below.
Which measured inhibition value corresponds to Nc1ncnc2c1ncn2[C@@H]1O[C@H](COP(=O)(O)CP(=O)(O)OP(=O)(O)CP(=O)(O)OC[C@H]2O[C@@H](n3cnc4c(N)ncnc43)[C@H](O)[C@@H]2O)[C@@H](O)[C@H]1O ?
70%

====

target or test system: Ectonucleotide pyrophosphatase/phosphodiesterase family member 1 (Homo sapiens)
test method notes: Inhibition of human NPP1 expressed in COS7 cells assessed as production of p-nitrophenol using pnp-TMP as the substrate at 100 uM after 15 mins […]
Format: cell-based
measurement context: COS-7
measured quantity: inhibition

# annotated cases, reported inhibition shown
molecule smiles	target or test system	inhibition
BP(=O)(OP(=O)(O)CP(=O)(O)OC[C@H]1O[C@@H](n2cnc3c(N)ncnc32)[C@H](O)[C@@H]1O)OP(=O)(O)CP(=O)(O)OC[C@H]1O[C@@H](n2cnc3c(N)ncnc32)[C@H](O)[C@@H]1O	Ectonucleotide pyrophosphatase/phosphodiesterase family member 1 (Homo sapiens)	> 90%
Nc1ncnc2c1ncn2[C@@H]1O[C@H](COP(=O)(O)CP(=O)(O)OP(=O)(O)CP(=O)(O)OC[C@H]2O[C@@H](n3cnc4c(N)ncnc43)[C@H](O)[C@@H]2O)[C@@H](O)[C@H]1O	Ectonucleotide pyrophosphatase/phosphodiesterase family member 1 (Homo sapiens)	> 90%
Nc1ncnc2c1ncn2[C@H]1C[C@H](O)[C@@H](COP(=O)(O)CP(=O)(O)OP(=O)(O)CP(=O)(O)OC[C@H]2O[C@@H](n3cnc4c(N)ncnc43)C[C@@H]2O)O1	Ectonucleotide pyrophosphatase/phosphodiesterase family member 1 (Homo sapiens)	> 90%

Now consider the entry below.
Which measured inhibition value corresponds to BP(=O)(OP(=O)(O)CP(=O)(O)OC[C@H]1O[C@@H](n2cnc3c(N)ncnc32)C[C@@H]1O)OP(=O)(O)CP(=O)(O)OC[C@H]1O[C@@H](n2cnc3c(N)ncnc32)C[C@@H]1O ?
> 90%
